system under test: Carbonic anhydrase 1 (Homo sapiens)
protocol notes: Activation of human recombinant CA1 by stopped flow CO2 hydration assay
measure name: KA (µM)

mol=N#Cc1ccc(S(=O)(=O)NNC(=O)[C@@H](N)Cc2c[nH]cn2)cc1 val=40.3
mol=N[C@@H](Cc1c[nH]cn1)C(=O)NNS(=O)(=O)c1c(F)c(F)c(F)c(F)c1F val=42.5
mol=N[C@@H](Cc1c[nH]cn1)C(=O)NNS(=O)(=O)c1ccc2ccccc2c1 val=63.8
mol=N[C@@H](Cc1c[nH]cn1)C(=O)NNS(=O)(=O)c1ccc([N+](=O)[O-])cc1 val=54.7
mol=N[C@@H](Cc1c[nH]cn1)C(=O)NNS(=O)(=O)c1ccc(-c2ccccc2)cc1 val=33.1
mol=N[C@@H](Cc1c[nH]cn1)C(=O)NNS(=O)(=O)c1ccc(Br)cc1 val=55.7
mol=CC(C)(C)c1ccc(S(=O)(=O)NNC(=O)[C@@H](N)Cc2c[nH]cn2)cc1 val=78.9
mol=N[C@@H](Cc1c[nH]cn1)C(=O)NNS(=O)(=O)c1ccc(I)cc1 val=76.3

* * *

KA for assorted molecules
system under test: Carbonic anhydrase 9 (Homo sapiens) (UniProt Q16790)
protocol notes: Activation of human recombinant CA9 catalytic domain by stopped flow CO2 hydration assay
measure name: KA (µM)

mol=Cc1ccc(S(=O)(=O)NNC(=O)[C@@H](N)Cc2c[nH]cn2)cc1 result_unit=µM val=18.1
mol=N[C@@H](Cc1c[nH]cn1)C(=O)NNS(=O)(=O)c1ccc([N+](=O)[O-])cc1 result_unit=µM val=30.5
mol=N[C@@H](Cc1c[nH]cn1)C(=O)NNS(=O)(=O)c1ccc(-c2ccccc2)cc1 result_unit=µM val=28.5
mol=N[C@@H](Cc1c[nH]cn1)C(=O)NNS(=O)(=O)c1ccc(C(F)(F)F)cc1 result_unit=µM val=22.4
mol=N#Cc1ccc(S(=O)(=O)NNC(=O)[C@@H](N)Cc2c[nH]cn2)cc1 result_unit=µM val=17.8
mol=N[C@@H](Cc1c[nH]cn1)C(=O)NNS(=O)(=O)c1ccc(F)cc1 result_unit=µM val=19.5
mol=N[C@@H](Cc1c[nH]cn1)C(=O)NNS(=O)(=O)c1ccc2ccccc2c1 result_unit=µM val=24.1
mol=COc1ccc(S(=O)(=O)NNC(=O)[C@@H](N)Cc2c[nH]cn2)cc1 result_unit=µM val=27.4
mol=N[C@@H](Cc1c[nH]cn1)C(=O)NNS(=O)(=O)c1ccc(Cl)cc1 result_unit=µM val=35.4
mol=CC(C)(C)c1ccc(S(=O)(=O)NNC(=O)[C@@H](N)Cc2c[nH]cn2)cc1 result_unit=µM val=29.8
